assay: yeast display, Sf9 membrane polyspecificity reagent, FACS + sequencing; frameworks hold sequencing errors
measured-quantity: polyreactivity (PSR sort gate)

Sample answers from the record:
{"columns": ["macromolecule-sequence", "measured-quantity", "value-observed"],
 "data": [
  ["QVQLVESGGGLVQAGGSLRLSCAASGRTFWNAMGWYRQEPGKERELVATITSGGITNYADSVKGRFTISRDNAKNTVYLQMNSLKPEDTAVYYCAARPYTWRNFRPSDYWGQGTQVTVSS", "polyreactivity (PSR sort gate)", "high polyreactivity"],
  ["QVQLQESGGGLVQAGGSLRLSCAASGYISDGYVMGWYRQAPGKEREFVATISGGTTAYYADSVKGRFTISRDNAKNTVYLQMNSLKPEDTAVYYCAAETSYYWDYDYWGHGTQVTVSS", "polyreactivity (PSR sort gate)", "high polyreactivity"],
  ["QVQLVESGGGLVQAGGSLRLSCAASGIIFYKYAMGSYRQSPWKERELVAVISRGGGSTYYADSVKGRFTISRDNAKNTVYLQMNSLKPEDTAVYYFAADPRVTRSYTYDYWGQGTQVTVSS", "polyreactivity (PSR sort gate)", "high polyreactivity"],
  ["QVQHVESGGGIVQAGGSLRLSCSASGSTFFYNTMGWYRHAPGKERELVAAISYRTGSTYYADSVKGRFTISRDNAKNSVYLQMNSLKTEDTAVYYCNARYPYRYGYWGQGTQVTVSS", "polyreactivity (PSR sort gate)", "high polyreactivity"],
  ["QVQLVESGGGLVQAGGSLRLSCAASGYTFQKYAMGWYRQAPGKERESVAAITRSGTRTYYADSVKGRFTISRDNAKNTVYLQMNSLKPEDTAVYYCAAETYYSIYDYWGQGTQVTVSS", "polyreactivity (PSR sort gate)", "high polyreactivity"]
]}

Input line: Using the record for QVQLVESGGGLVQAGGSLRLSCAASGYTFNRYAMGWYRQAPGKERELVAAITRGGTTYYADSVKGRFTISRDNAKNTVYLQMNSLKPEDTAVYYCNKFQPSGQYFKMGYWGQGTQVTVSS , report its polyreactivity (PSR sort gate).
Output line: high polyreactivity

Input line: Another sequence to look at: QVQLVESGGGLVQAGGSLRLSCAASGRIFIHYAMGGYRHAPGKERELVAAISASGGTTNYADSVKGRFTISRDNAKNTVYLQMNSLKPEDTAVYYCNKDYPQNPLPASSYYLGRFDYWGQGSQVTVSS
Output line: high polyreactivity
